# Tested on: A549
# PROTOCOL SUMMARY: In vitro cytotoxicity against human Non-small cell lung cancer A549/ATCC cell line.
# Assay type: functional
OBSERVATION TYPE: GI50 (µM)
# unit: µM | format: bare number

Use the examples below as a reference point.
# MOLECULE, MEAS VALUE
data = [
    ("C[C@@H]1O[C@H]2O[C@H]3[C@@H](OC[C@H](O)[C@@H]3O)OC(=O)[C@@]34CCC5C(=CC[C@@H]6[C@@]7(C)C[C@H](O)[C@H](O[C@@H]8O[C@H](CO)[C@@H](O)[C@H](O)[C@H]8O[C@@H]8O[C@H](CO)[C@H](O)[C@H](O)[C@H]8OC(=O)CC(C)(O)CC(=O)O[C@@H]1[C@@H](O[C@@H]1O[C@H](CO)[C@@H](O)[C@H](O)[C@H]1O)[C@H]2O)C(C)(C)[C@@H]7CC[C@@]56C)[C@@H]3CC(C)(C)CC4 (some centres undefined)", 0.14),
    ("C[C@@H]1O[C@H]2OC3[C@@H](OC[C@H](O)[C@@H]3O)OC(=O)[C@@]34CC[C@@H]5C(=CC[C@H]6[C@@]5(C)CC[C@H]5C(C)(C)[C@@H](O[C@@H]7O[C@H](CO)[C@@H](O)[C@H](O)[C@H]7O[C@@H]7O[C@H](CO)[C@@H](O)[C@H](O)[C@H]7OC(=O)CC(C)(O)CC(=O)O[C@@H]1[C@@H](O)[C@H]2O)[C@@H](O)C[C@]65C)[C@@H]3CC(C)(C)CC4 (some centres undefined)", 1.32),
    ("C[C@@H]1O[C@H]2O[C@H]3[C@@H](OC[C@H](O)[C@@H]3O)OC(=O)[C@@]34CC[C@@H]5C(=CC[C@H]6[C@@]5(C)CC[C@H]5C(C)(C)[C@@H](O[C@@H]7O[C@H](CO)[C@@H](O)[C@H](O)[C@H]7O[C@H]7OC[C@H](OC(=O)CC(C)(O)CC(=O)O[C@@H]1[C@@H](O)[C@H]2O)[C@H](O)[C@H]7O)[C@@H](O)C[C@]65C)[C@@H]3CC(C)(C)CC4 (some centres undefined)", 2.24),
]

Now consider the entry below.
Entry C[C@@H]1O[C@H]2O[C@H]3[C@@H](OC[C@H](O)[C@@H]3O)OC(=O)[C@@]34CCC5C(=CC[C@@H]6[C@@]7(C)C[C@H](O)[C@H](O[C@@H]8O[C@H](CO)[C@@H](O)[C@H](O)[C@H]8O[C@H]8OC[C@H](OC(=O)CC(C)(O)CC(=O)O[C@@H]1[C@@H](O[C@@H]1O[C@H](CO)[C@@H](O)[C@H](O)[C@H]1O)[C@H]2O)C(O)[C@H]8O)C(C)(C)[C@@H]7CC[C@@]56C)[C@@H]3CC(C)(C)CC4 (some centres undefined) : reported GI50 = ?
3.89
